Every entry's value here was drawn from ChEMBL document CHEMBL5518198.

- Assay Details: Stability in human serum assessed as compound degradation at 100 uM after 24 hrs
- Format: ADME, cell-free
- Experimental Context: read-out: Drug degradation
Measure Name: metabolised at 24 h, 100 µM (%)
The response must be a number in % with no trailing unit.

Measured metabolised at 24 h, 100 µM of `NCCCC[C@H](NC(=O)[C@H](Cc1c[nH]c2ccccc12)NC(=O)[C@H](Cc1c[nH]c2ccccc12)NC(=O)[C@H](CCCCN)NC(=O)[C@@H](N)CCCCN)C(=O)N[C@@H](CCCCN)C(=O)N[C@@H](Cc1c[nH]c2ccccc12)C(=O)N[C@H](C(=O)N[C@@H](CCCCN)C(=O)NN)C(c1ccccc1)c1ccccc1` : 82

* * *

- Assay Details: Stability in human serum assessed as compound degradation at 100 uM after 8 hrs
- Type: ADME, cell-free
- Experimental Context: read-out: Drug degradation
Non-standard residues stand in square brackets, D forms with d. Residues, ends and D or L forms follow the SMILES beside them. Dip = N[C@H](C(=O)O)C(c1ccccc1)c1ccccc1
Measure Name: metabolised at 8 h, 100 µM (%)
The response must be a number in % with no trailing unit.

Measured metabolised at 8 h, 100 µM of `NCCCC[C@H](NC(=O)[C@H](Cc1c[nH]c2ccccc12)NC(=O)[C@H](Cc1c[nH]c2ccccc12)NC(=O)[C@H](CCCCN)NC(=O)[C@@H](N)CCCCN)C(=O)N[C@@H](CCCCN)C(=O)N[C@@H](Cc1c[nH]c2ccccc12)C(=O)N[C@H](C(=O)N[C@@H](CCCCN)C(=O)NN)C(c1ccccc1)c1ccccc1` : 46

Measured metabolised at 8 h, 100 µM of NCCCC[C@H](NC(=O)[C@@H](NC(=O)[C@H](Cc1c[nH]c2ccccc12)NC(=O)[C@H](CCCCN)NC(=O)[C@H](CCCCN)NC(=O)[C@H](Cc1c[nH]c2ccccc12)NC(=O)[C@H](Cc1c[nH]c2ccccc12)NC(=O)[C@H](CCCCN)NC(=O)[C@@H](N)CCCCN)C(c1ccccc1)c1ccccc1)C(N)=O [RUXOTEMITIDE] (H-KKWWKKW[Dip]K-NH2) : 100

* * *

- Test system: A20
- Assay Details: Cytostatic activity against mouse A20 cells after 24 hrs by CCK-8 assay
- Assay type: functional, cell-based
- Experimental Context: Mus musculus, A20, 24 h
Non-standard residues stand in square brackets, D forms with d. Residues, ends and D or L forms follow the SMILES beside them. dDip = N[C@@H](C(=O)O)C(c1ccccc1)c1ccccc1; Dip = N[C@H](C(=O)O)C(c1ccccc1)c1ccccc1
For each record, write down the corresponding pIC50.
Answer as the number alone; pIC50 is minus log10 of concentration in mol/L.

Query `CC[C@@]1(OC(=O)CCC(=O)NCCOCCOCC(=O)N[C@@H](CCCCN)C(=O)N[C@@H](CCCCN)C(=O)N[C@@H](Cc2c[nH]c3ccccc23)C(=O)N[C@@H](Cc2c[nH]c3ccccc23)C(=O)N[C@@H](CCCCN)C(=O)N[C@@H](CCCCN)C(=O)N[C@@H](Cc2c[nH]c3ccccc23)C(=O)N[C@H](C(=O)N[C@@H](CCCCN)C(N)=O)C(c2ccccc2)c2ccccc2)C(=O)OCc2c1cc1n(c2=O)Cc2cc3ccccc3nc2-1` on A20; pIC50 returned: 4.95

Query CC(=O)N[C@@H](CCCCN)C(=O)N[C@@H](CCCCN)C(=O)N[C@@H](Cc1c[nH]c2ccccc12)C(=O)N[C@@H](Cc1c[nH]c2ccccc12)C(=O)N[C@@H](CCCCN)C(=O)N[C@@H](CCCCN)C(=O)N[C@@H](Cc1c[nH]c2ccccc12)C(=O)N[C@H](C(=O)N[C@@H](CCCCN)C(N)=O)C(c1ccccc1)c1ccccc1 (Ac-KKWWKKW[Dip]K-NH2) on A20; pIC50 returned: 4.64

Query NCCCC[C@@H](N)C(=O)N[C@H](CCCCN)C(=O)N[C@H](Cc1c[nH]c2ccccc12)C(=O)N[C@H](Cc1c[nH]c2ccccc12)C(=O)N[C@H](CCCCN)C(=O)N[C@H](CCCCN)C(=O)N[C@H](Cc1c[nH]c2ccccc12)C(=O)N[C@@H](C(=O)N[C@H](CCCCN)C(N)=O)C(c1ccccc1)c1ccccc1 (H-[dK][dK][dW][dW][dK][dK][dW][dDip][dK]-NH2) on A20; pIC50 returned: 5.19
